Ref: PubChem BioAssay (NCI)

- System: KM12 colon
- Measurement notes: NCI tumour cell line growth inhibition, 48 h
// not fulfilled strictly below 10 µM in TGI; fulfilled otherwise

Consider the following illustrative entries.
compound=Nc1cc2ccncc2c2ccccc12 class_name=fulfilled
compound=Clc1ccc2c(NCCNc3nc(Cl)nc4ccccc34)ccnc2c1 class_name="not fulfilled"
compound=COC(=O)[C@@H](C)C[C@H](Cc1ccccc1)NC(=O)c1csc([C@@H](C[C@H](C(C)C)N(C)C(=O)[C@@H](NC(=O)CN(C)C)C2CC2)OC(C)=O)n1 class_name=fulfilled
compound="c1ccc(C2C3=C(CCCC3)Nc3nnnn32)cc1 (centres undefined)" class_name=fulfilled
compound="C=C1CC2C[C@H](OS(=O)(=O)c3ccc(C)cc3)C(C1)N2C (some centres undefined)" class_name=fulfilled
compound="CN1CCN(C2CC(=O)c3c(Cl)sc(Cl)c32)CC1 (centres undefined)" class_name=fulfilled
compound="CC1CCCc2c(CC3CC(=O)NC(=O)C3)nc(N)nc21 (centres undefined)" class_name=fulfilled
compound=CCN(Cc1cccc(C)c1)c1ccc(CO)c(Cl)c1 class_name=fulfilled
compound="CCC(C)Cn1c(C)nc2c1C(=O)c1ccccc1C2=O (centres undefined)" class_name=fulfilled
compound="S=C1NC2=C(CCOc3c2ccc2ccccc32)C(c2ccc(Cl)cc2)N1 (centres undefined)" class_name=fulfilled

Exercise: Has `Cn1cc(C2=C(c3cn(C)c4cc(Cl)ccc34)C(=O)NC2=O)c2ccccc21` a recorded TGI greater than or equal to 10 µM?
Key: not fulfilled

Exercise: Has CC(=O)OC1CC2C(C)(C)C(=O)C=C[C@]2(C)C2CCC3(C)C(=CCC3[C@H](CO)C[C@H](O)C(=O)C(C)(C)O)[C@]12C (some centres undefined) a recorded TGI greater than or equal to 10 µM?
Key: fulfilled

Exercise: Has CC(C)C(NCc1c2ccccc2nc2ccccc12)C(=O)O (centres undefined) a recorded TGI greater than or equal to 10 µM?
Key: fulfilled

Exercise: Has `CCN1CCN(c2nc(NNC(=O)c3cccc(OC)c3)nc(N3CCN(C(c4ccccc4)c4ccccc4)CC3)n2)CC1` a recorded TGI greater than or equal to 10 µM?
Key: not fulfilled

Exercise: Has `COc1ccc2c(c1)/C(=N/OC(C)=O)c1c-2c(Nc2ccc(/C(C)=N/OC(C)=O)cc2)nc2ccccc12` a recorded TGI greater than or equal to 10 µM?
Key: fulfilled

Exercise: Has CC(NC1=NCCO1)c1ccco1 (centres undefined) a recorded TGI greater than or equal to 10 µM?
Key: fulfilled
